// data source = ChEMBL document CHEMBL1201861

- System: HCC38;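 note: cell viability assay on the human HCC38 cell line, with IC50 marking the concentration that inhibits cell growth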
- Assay Info: cells
- Type: functional, cell-based
- Assay Setup: Homo sapiens
- Description: SANGER: Inhibition of human HCC38 cell growth in a cell viability assay.
pIC50: −log10 of the molar value.
Property: pIC50

Previously resolved entries follow.
Per the records, this molecule ( "Cc1ccc(-n2nc(C(C)(C)C)cc2NC(=O)Nc2ccc(OCCN3CCOCC3)c3ccccc23)cc1" ) has pIC50 equal to < 5.00

The molecule identified as "COC(=O)[C@H](CCSC)NC(=O)c1ccc(NC[C@@H](N)CS)cc1-c1ccccc1" registered its pIC50 at < 5.99

Switching to the query record.
Data point: "NC1(c2ccc(-c3nc4ccn5c(=O)[nH]nc5c4cc3-c3ccccc3)cc2)CCC1" ; pIC50 = < 5.40

###

pIC50: recorded values
- Tested on: RPMI-7951
- Assay Info: cells
- Format: functional, cell-based
- Assay Setup: Homo sapiens
- Description: SANGER: Inhibition of human RPMI-7951 cell growth in a cell viability assay.
pIC50: −log10 of the molar value.

Consider the worked cases shown below.
// returns pIC50 for "O=S(=O)(O)c1ccc2cc(/N=N/c3cc(S(=O)(=O)O)c4cccnc4c3O)ccc2c1" with RPMI-7951; value = < 4.80

Measured pIC50 for this entry "COC(=O)[C@H](CCSC)NC(=O)c1ccc(NC[C@@H](N)CS)cc1-c1ccccc1" on RPMI-7951: < 5.99

RPMI-7951 data for "CS(=O)(=O)N1CCN(Cc2cc3nc(-c4cccc5[nH]ncc45)nc(N4CCOCC4)c3s2)CC1" ; its pIC50: < 5.40

Further cases:
So the reported pIC50 for "Cc1ccc(-n2nc(C(C)(C)C)cc2NC(=O)Nc2ccc(OCCN3CCOCC3)c3ccccc23)cc1" , on RPMI-7951, turned out to be < 5.00

###

- System: IA-LM;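 note: cell viability assay measuring growth inhibition of human IA-LM cells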
- Assay Info: cells
- Assay type: functional, cell-based
- Assay Setup: Homo sapiens
- Description: SANGER: Inhibition of human IA-LM cell growth in a cell viability assay.
pIC50: −log10 of the molar value.
Property: pIC50

Consider the worked cases shown below.
Lab entry: IA-LM assay, compound C=CC(=O)N1CCCC(Nc2nc(Nc3ccc(N(C)C(=O)CC)cc3)nc3[nH]cnc23)C1 (stereo not given) , pIC50 = < 4.99

Sample "Cc1ccc(NC(=O)c2ccc(CN3CCN(C)CC3)cc2)cc1Nc1nccc(-c2cccnc2)n1" , system: IA-LM. Its pIC50 is < 5.70

Entry "Cc1cc(N2CCOCC2)cc2[nH]c(-c3c(NC[C@@H](O)c4cccc(Cl)c4)cc[nH]c3=O)nc12" ; assay system IA-LM; pIC50 recorded at < 5.29

Kindly note: IA-LM, "C[C@@H](Oc1cc(-c2cnn(C3CCNCC3)c2)cnc1N)c1c(Cl)ccc(F)c1Cl" , pIC50 value reported: < 5.70

New cases:
The observed pIC50 for "O=C1NC(=O)c2c1c(-c1ccccc1Cl)cc1[nH]c3ccc(O)cc3c21" when tested with IA-LM stands at < 5.70

###

- Tested on: KYSE-270;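 note: cell growth inhibition measured with a viability assay in the human KYSE-270 line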
- Assay Info: cells
- Format: functional, cell-based
- Assay Setup: Homo sapiens
- Description: SANGER: Inhibition of human KYSE-270 cell growth in a cell viability assay.
pIC50: −log10 of the molar value.
Property: pIC50

# molecule "O=C(NCCCNc1nc(Nc2cccc(NC(=O)N3CCCC3)c2)ncc1I)c1cccs1" ; its pIC50 = < 5.30

Data point: "O=S(=O)(O)c1ccc2cc(/N=N/c3cc(S(=O)(=O)O)c4cccnc4c3O)ccc2c1" ; pIC50 = < 4.80

Here is the next item to consider.
Measured pIC50 of "NC(=O)c1ccc(N(C(N)=O)c2c(F)cccc2F)nc1-c1ccc(F)cc1F" : < 5.70
